experiment: Metabolic stability in liver microsomes, mouse; type: in vitro ADME
measure-name: T1/2 liver microsomes Mouse (h)
Note: unit h is implicit; provide only the numeric part.

- C=CCn1c(=O)c2cnc(Nc3ccc(N4CCC(N(C)C)CC4)c(C)c3)nc2n1-c1ccc2c(n1)[C@@](C)(O)C1(CC2)CC1 (single isomer, unassigned) [Compound 52a]: 1.603
- C=CCn1c(=O)c2cnc(Nc3ccc(N4C[C@H]5CN(C)C[C@H]5C4)cc3)nc2n1-c1ccc2c(n1)C(O)(CC)C1(CC1)C2 (stereo partly drawn): 0.8608
- C=CCn1c(=O)c2cnc(Nc3ccc(N4CCC5(CCN(C)CC5)CC4)cc3)nc2n1-c1ccc2c(n1)[C@](C)(O)C1(CC2)CC1 (racemic): 1.05
- C=CCn1c(=O)c2cnc(Nc3ccc(N4CC5CC(C4)N5C)cc3)nc2n1-c1ccc2c(n1)[C@@](C)(O)C1(CC2)CC1: 1.209

So, C=CCn1c(=O)c2cnc(Nc3ccc(N4CCN(C)CC4)cc3)nc2n1-c1ccc2c(n1)[C@H](O)C1(CC2)CC1 (single isomer, unassigned) ? Its T1/2 liver microsomes Mouse was 1.214

Lab note: measured T1/2 liver microsomes Mouse of [2H][C@]1(O)c2nc(-n3c4nc(Nc5ccc(N6CCC7(CCN(C)CC7)CC6)cc5)ncc4c(=O)n3CC=C)ccc2CCC12CC2 [Compound 37b] was 0.63
